Values from ChEMBL document CHEMBL1145542

experimental.protocol: AUC (0 to last t) in Beagle dog at 1 mg/kg, po
Type: ADME, organism-based, Canis lupus familiaris
Parameters: time 0 - last, dose 1 mg/kg, route oral
test.settings: plasma
For each entry below, report its AUC(0-t) value.
Give bare numbers, in ng·h/mL.

O=C(O)CN1C(=O)[C@@]2(CC(=O)N(Cc3ccccc3F)C2=O)c2cc(Cl)ccc21 ... 2350

Now turn to the next compound.
Query: Item O=C(O)CN1C(=O)[C@@]2(CC(=O)N(Cc3cc(Cl)ccc3F)C2=O)c2cc(Cl)ccc21 has what recorded AUC(0-t)?
Result: 339

---

Please go through the items and note down their AUC(0-t).
experimental.protocol: AUC (0 to last t) in rat at 5 mg/kg, po
Format: ADME, organism-based
Set-up: time 0 - last, dose 5 mg/kg, route oral
test.settings: plasma
One number for each entry, in ng·h/mL.

Cc1noc(-c2ccccc2)c1CN1CC2(CC1=O)C(=O)N(CC(=O)O)c1ccc(Cl)cc12 (centres undefined) ... 2.01
O=C(O)CN1C(=O)C2(CC(=O)N(Cc3cc(Cl)ccc3F)C2)c2cc(Cl)ccc21 (single isomer, unassigned; form 1) ... 319
O=C(O)CN1C(=O)[C@@]2(CC(=O)N(Cc3cc(Cl)ccc3F)C2=O)c2cc(Cl)ccc21 ... 1910

Now let's try a different one.
Query: Using the record for O=C(O)CN1C(=O)[C@@]2(CC(=O)N(Cc3ccccc3F)C2=O)c2cc(Cl)ccc21 , report its AUC(0-t).
Result: 2480

---

tgt: Prostaglandin D2 receptor 2 (Mus musculus)
Sequence (Q9Z2J6 whole entry): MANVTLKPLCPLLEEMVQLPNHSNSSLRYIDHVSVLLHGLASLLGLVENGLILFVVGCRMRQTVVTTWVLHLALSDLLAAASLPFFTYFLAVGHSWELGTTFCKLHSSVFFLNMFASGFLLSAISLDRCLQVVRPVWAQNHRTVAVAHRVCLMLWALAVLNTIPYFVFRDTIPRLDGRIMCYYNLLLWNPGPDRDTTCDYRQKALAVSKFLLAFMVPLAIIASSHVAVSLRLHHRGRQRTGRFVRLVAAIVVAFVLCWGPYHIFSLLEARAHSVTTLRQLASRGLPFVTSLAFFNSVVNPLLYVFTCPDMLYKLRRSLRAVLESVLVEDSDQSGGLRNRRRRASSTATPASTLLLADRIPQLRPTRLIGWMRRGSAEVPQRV
experimental.protocol: Displacement of [3H]PGD2 from mouse CRTH2 receptor expressed in HEK293 cells
measured.property: Ki (nM)
Give bare numbers, in nM.

O=C(O)CN1C(=O)C2(CC(=O)N(Cc3ccccc3)C2=O)c2cc(Cl)ccc21 (stereo unspecified) ... 150
O=C(O)CN1C(=O)C2(CC(=O)N(Cc3cc(Cl)ccc3F)C2)c2cc(Cl)ccc21 (single isomer, unassigned; form 1) ... 88
O=C(O)CN1C(=O)[C@@]2(CC(=O)N(Cc3ccccc3F)C2=O)c2cc(Cl)ccc21 ... 22
O=C(O)CN1C(=O)[C@@]2(CC(=O)N(Cc3cc(Cl)ccc3F)C2=O)c2cc(Cl)ccc21 ... 5

Quick batch: Ki for everything below.
1. O=C(O)CN1C(=O)[C@@]2(CC(=O)N(Cc3cccc(Cl)c3)C2=O)c2cc(Cl)ccc21
2. O=C(O)CN1C(=O)C2(CC(=O)N(Cc3ccccc3)C2)c2cc(Cl)ccc21 (stereo unspecified)

Result:
1: 33; 2: 480

---

experimental.protocol: Tmax in rat at 5 mg/kg, po
Type: ADME, organism-based
Set-up: dose 5 mg/kg, route oral
test.settings: in vivo
measured.property: Tmax (h)
Numbers only, in h.

Example results:
O=C(O)CN1C(=O)[C@@]2(CC(=O)N(Cc3cc(Cl)ccc3F)C2=O)c2cc(Cl)ccc21 ... 1.5
Cc1noc(-c2ccccc2)c1CN1CC2(CC1=O)C(=O)N(CC(=O)O)c1ccc(Cl)cc12 (centres undefined) ... 0.25

Would you be so kind as to report Tmax for each listed record?
1. O=C(O)CN1C(=O)[C@@]2(CC(=O)N(Cc3ccccc3F)C2=O)c2cc(Cl)ccc21
2. O=C(O)CN1C(=O)C2(CC(=O)N(Cc3cc(Cl)ccc3F)C2)c2cc(Cl)ccc21 (single isomer, unassigned; form 1)

Result:
1. 0.5
2. 1.5
